Assay: hepatitis C replication reporter changes, two-sided – Huh7 cells, luciferase reporter, HCV replication inhibitor project, primary screen (AID 1109);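 further: huh7 hepatoma cells harbouring a luciferase neomycin HCV replicon reporter; luciferase luminescence as measure of HCV replicon replication; test concentration not given here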
Details: Huh7 HCV replicon luciferase reporter, 48 h; higher = more signal
testReadout: z-score
One number for each entry.

compound	valueMeasured
COc1ccc(C#Cc2ccc3c(c2)[C@]2(C(=O)N3)[C@H](c3ccc(OCCO)cc3)N3[C@H](c4ccccc4)[C@H](c4ccccc4)OC(=O)[C@H]3[C@@H]2C(=O)Nc2nc3ccccc3s2)cc1	-2
Cc1ccc(N2C(=O)c3ccccc3[C@@H](C(=O)NC(C)C)[C@@H]2c2ccc(CO)cc2)nc1	-0.301
CC(C)N1C(=O)c2ccccc2[C@](C)(C(=O)NCCCN(C)C)[C@@H]1c1ccc(CO)cc1	-0.104
[N-]=[N+]=NCc1ccccc1[C@H]1OC(c2ccc(OCCCO)cc2)=N[C@@]1(Cc1ccccc1)C(=O)O	-2.64
C=C[C@H](C)[C@H](OC(=O)Nc1ccc(OC)cc1)c1ccc(O)c2ccccc12	-3.3
CC(C)C(CO)N1C(=O)[C@@H]2[C@H]3C(=O)OCC=C[C@H]3OC23C=CCN(c2ccc4ccccc4c2)C(=O)[C@@H]13 (stereo not given in full)	-0.453
O=C1c2ccccc2[C@@]2(Cc3ccccc3N(Cc3ccccc3)C2=O)[C@H](c2ccc(CO)cc2)N1Cc1ccccc1C(F)(F)F	-0.353
C=CCCN(CC#C[C@H]1Oc2ccccc2S(=O)(=O)N2CCC[C@@H]12)S(=O)(=O)c1ccc(C)cc1	-1.92

For every item in the list below, what is its measured z-score?
1. COc1ccccc1CN1C(=O)c2ccccc2[C@](Cc2ccccc2I)(C(=O)NCc2ccccc2)[C@@H]1c1ccc(CO)cc1
2. CC1CC/C=C\[C@H]2OC34C=CCN(Cn5nnc6ccccc65)C(=O)[C@H]3N(CCCO)C(=O)[C@@H]4C2C(=O)O1 (stereo not given in full)
3. COC(=O)[C@@]1(Cc2ccccc2)[C@H]2c3cc(C(=O)N(C)C)n(Cc4cc(F)c(F)c(F)c4)c3C[C@H]2CN1C(=O)c1ccccc1
4. C=C(CCCC)/C(=C/C[C@H](OC(C)=O)c1ccc(CO)o1)c1cc(C(=O)OC)ccc1OC

# output
-0.641
-0.486
-1.87
-1.58

====

Molecular target: Pro-neuregulin-1, membrane-bound isoform (Homo sapiens)
Experiment: small molecules binding neuregulin-1 protein – biochemical, small-molecule microarray, fluorescence 635/667, psychiatric disease protein project, primary screen (AID 1075);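 further: score combines 667 nm spot fluorescence with signal to noise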
Conditions: NRG1 binding, 635 nm fluorescence, higher = more signal
Note: every record was labeled by where its composite z-score sits among low band = under -0.1, middle band = from -0.1 up to 1, high band = 1 and over

compound	assignedLabel
Cc1ccc(S[C@]2(C(=O)NCCCN(C)C)CC(=O)N(Cc3ccccc3)[C@@H]2c2ccc(CO)cc2)cc1	low band
NC(=O)NCC#Cc1ccc2c(c1)[C@]1(C(=O)N2)[C@H](C(=O)NC[C@H](O)c2ccccc2)[C@H]2C(=O)O[C@H](c3ccccc3)[C@H](c3ccccc3)N2[C@@H]1c1ccccc1OCCO	high band
C=CC[C@]1(C(=O)O)N=C(c2ccc(OCCCO)cc2)O[C@H]1c1ccccc1CN=[N+]=[N-]	middle band

# input Pick a category. Item: C=C(C(=O)CC[C@H](OC(=O)c1cccnc1)c1ccccc1OCCO)C(C)C
# output low band

# input Class? Entry: O=C1[C@H]2C=C(Br)[C@H](C[C@@H]2OCCOCCO)[C@@]12CO2
# output low band

# input Category of C=C(CCCC)C(=O)CC[C@H](OC(=O)c1ccccc1-c1ccccc1C(=O)O)c1ccc(CO)o1 , please.
# output middle band

# input Sort into band: CCCC[C@@H]1C[C@H]1[C@@H](NC(=O)c1ccco1)c1ccccc1
# output low band

# input # classify by composite z-score band: O=C1O[C@@H](c2ccccc2)[C@@H](c2ccccc2)N2[C@@H](c3ccccc3OCCO)[C@]3(C(=O)Nc4ccc(C#CC5(O)CCCCCC5)cc43)[C@@H](C(=O)NC[C@H](O)c3ccccc3)[C@H]12
# output high band

# input Which category does the recorded composite z-score put Cc1ccc(N2C(=O)c3ccccc3[C@@H](C(=O)NCC(C)C)[C@@H]2c2ccc(CO)cc2)nc1 in?
# output low band

# input Could you tell me which band CCOC1=C2C(c3ccc(C)cc3)N(S(=O)(=O)c3ccc(C)cc3)CC2n2c(=O)n(-c3ccccc3)c(=O)n2C1 (centres undefined) belongs to?
# output high band

# input Which class holds O=C1c2ccccc2[C@@]2(Cc3ccccc3N(Cc3ccccc3)C2=O)[C@H](c2ccc(CO)cc2)N1Cc1ccccc1C(F)(F)F ?
# output middle band

# input Field: class (composite z-score) — entry: CO[C@H]1O[C@H](CO)[C@@H](OC(=O)Nc2ccc3c(c2)OCO3)[C@H](OC(=O)Nc2ccc3c(c2)OCO3)[C@H]1OC(=O)Nc1ccc2c(c1)OCO2
# output high band

# input Which bin should I file CC(C)(C)OC(=O)CC[C@]1(C(=O)NCC(O)CO)N=C(c2ccc(OCCCO)cc2)O[C@H]1c1ccccc1CN=[N+]=[N-] (some centres undefined) under?
# output high band

# input # bin lookup: classify C=CCNC(=O)[C@@H]1[C@H]2C(=O)O[C@H](c3ccccc3)[C@H](c3ccccc3)N2[C@H](c2ccccc2OCCO)[C@@]12C(=O)N(C(=O)OCCOC)c1ccc(C#CCC(C(=O)OC)C(=O)OC)cc12 by its composite z-score
# output high band

====

Assay: growth of efflux-deficient E. coli DRC39 – strain DRC39, OD650, 24 h, E. coli filamentation inducers, primary screen (AID 1178);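 further: growth measured as culture turbidity by optical density at 650 nm; test concentration not given here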
Conditions: E. coli DRC39 acrAB, higher = more signal, called active from +8 up or from −8 down
Tick met if z-score is 0.6 or greater. Tick not met if z-score is less than 0.6.

molecule	assignedLabel
CO[C@H]1O[C@H](CO)[C@@H](OC(=O)Nc2ccc3c(c2)OCO3)[C@H](OC(=O)Nc2ccc3c(c2)OCO3)[C@H]1OC(=O)Nc1ccc2c(c1)OCO2	met
O=c1cccc(-c2ccc3ccccc3c2)o1	met

# input Is it the case that CCCC[C@@H]1C[C@H]1[C@@H](NC(=O)c1ccccc1)c1ccc(-c2ccccc2)cc1 has z-score reaching or exceeding 0.6?
# output not met

# input Threshold query (z-score >= 0.6) on O=C1O[C@@H](c2ccccc2)[C@@H](c2ccccc2)N2[C@@H](c3ccc(O)cc3)[C@]3(C(=O)Nc4ccc(C#CCCO)cc43)[C@@H](C(=O)O)[C@H]12
# output not met

# input Quick check: does CN(C)CCCC[C@@H]1NC(=O)[C@@H]2C[C@H](C(=O)NCc3ccc(F)cc3)[C@H](c3cccc(OCCO)c3)N2C1=O have z-score greater than or equal to 0.6?
# output met

# input Has NC(=O)NCC#Cc1ccc2c(c1)[C@]1(C(=O)N2)[C@H](C(=O)NC[C@H](O)c2ccccc2)[C@H]2C(=O)O[C@H](c3ccccc3)[C@H](c3ccccc3)N2[C@@H]1c1ccccc1OCCO a recorded z-score greater than or equal to 0.6?
# output met

# input Please indicate if the recorded z-score for Cc1ccc(S[C@]2(C(=O)NCc3ccccc3)CC(=O)N(Cc3cc(C(F)(F)F)cc(C(F)(F)F)c3)[C@@H]2c2ccc(CO)cc2)cc1 meets or exceeds 0.6.
# output not met

# input API: above_or_equal(metric=z-score, cutoff=0.6) for item CC(c1ccccc1)C(O)C1C=CC2C(=O)N(Cc3ccccc3)C(=O)C2N1n1cnnc1 (centres undefined)
# output not met

====

Test: JC-1 mitochondrial signal, unstimulated adipocytes – cell-based, JC-1 fluorescence, 3T3-L1 adipocytes, 24 h, 100 nL compound, profiling panel (AID 1168); further: test concentration not given here
Conditions: JC-1 mitochondrial fluorescence, higher = more signal, called active from +8 up or from −8 down
Note to self: values exactly at -0.1 are T. So z-score at or above -0.1 is T, below is F.

Below, 2 compounds whose answers are already recorded.
compound	assignedLabel
COc1ccccc1CN1C(=O)c2ccccc2[C@](Cc2ccccc2I)(C(=O)NC2CC2)[C@@H]1c1ccc(CO)cc1	T
CN1C(=O)C2C=CC(C(O)C=Cc3ccc([N+](=O)[O-])cc3)N(N3CCCCC3)C2C1=O (stereo not given)	F

# input Please check the record CC(C)NC(=O)[C@@]1(c2ccc([N+](=O)[O-])cc2)CC(=O)N(C(C)C)[C@@H]1c1ccc(CO)cc1 and state if its z-score is at or above -0.1.
# output T

# input I'd appreciate it if you could say whether C=C(CCCC)C(=O)CC[C@H](OC(=O)c1ccccc1-c1ccccc1C(=O)O)c1ccc(CO)o1 has z-score at least equal to -0.1.
# output F

# input Quick check: does COCCOC(=O)N1C(=O)[C@@]2(c3cc(C#CC4(O)CCCCCC4)ccc31)[C@H](c1ccc(O)cc1)N1[C@H](c3ccccc3)[C@H](c3ccccc3)OC(=O)[C@H]1[C@@H]2C(=O)N1CCc2cc(OC)c(OC)cc2C1 have z-score greater than or equal to -0.1?
# output F

# input API: above_or_equal(metric=z-score, cutoff=-0.1) for item COC(=O)[C@@]1(Cc2ccccc2)[C@H]2c3cc(C(=O)N(C)C)n(Cc4cc(F)c(F)c(F)c4)c3C[C@H]2CN1C(=O)c1ccccc1
# output F

# input Hello, I need to know if CC[C@@H]1C=C(C(=O)O)[C@H](c2ccc(C(C)C)cc2)N1S(=O)(=O)c1ccc(C)cc1 has measured z-score not below -0.1. Thanks!
# output T

# input Please check the record CS(=O)(=O)CCOC(=O)C1=CC(c2ccc(CO)cc2)=CC(c2cccs2)N(Cc2cccc(OC(F)(F)F)c2)C=C1C(=O)OCCS(C)(=O)=O (stereo not given) and state if its z-score is at or above -0.1.
# output T

These data points were gathered from PubChem BioAssay.
